# test_description: cancer stem cell viability inhibitors, primary screen, luminescence (AID 2717)
# condition_description: cancer stem cell-like cells viability, at 7.5 µM, hits give high values
Out of some 300,000 compounds screened, about 3,200 (1.1%) were called active. Shown is part of a subset that was picked to be rich in actives.
measure: inhibition (%)
Give bare numbers, in %.

Please report inhibition for every entry that follows.
1. CCCCCCSc1ccc(-c2nc3ccc(Cl)cn3c2NCc2ccccc2)cc1
2. Cc1sc2ncnc(N3CCC(C(=O)Nc4ccc(F)cc4Cl)CC3)c2c1C
3. CCCCNc1c(-c2cccc(Sc3ccc(OC)cc3)c2)nc2ccccn12
4. COc1cccc(/C=N/Nc2cc(C)nc(-c3ccccc3O)n2)c1O
5. O=C(COC(=O)c1cc[n+]([O-])cc1)Nc1ccc(Cl)c(C(F)(F)F)c1
6. CC(C)(C)OC(=O)NCCCCCNC(=O)c1[nH]cnc1C(=O)Nc1nccs1
7. Cc1cccc(N=C2NN=C(c3c[nH]c4ccccc34)CS2)c1
8. COc1ccc(/C=C(\C#N)c2c[nH]c3ccccc23)cc1

1. 61.1
2. 4.03
3. 78
4. 12.2
5. 13.8
6. 0.813
7. 80
8. 102

###

# test_description: cancer stem cell viability inhibitors, primary screen, luminescence (AID 2717)
# condition_description: cancer stem cell-like cells viability, at 7.5 µM
Among all 300,000 compounds or so, about 3,200 (1.1%) were called active. Cut-off read from the data, not from the text of the source: active = inhibition above about 75%; inconclusive = no clear call, values can overlap the other calls; inactive = below that; tested in HMLE shEcad cells. The sample holds actives, similar compounds and a random draw of the others, so the mix is not that of the screen.
Reply using exactly one outcome from true (1) (active), false (0) (inactive)

{"compound": "Cc1cc(C)cc(NS(=O)(=O)c2ccc(F)cc2)c1", "category_label": "false (0)"}
{"compound": "O=C(NCCN1CCOCC1)c1ccc(/C=C2\\Sc3ccccc3N(Cc3ccc(F)cc3)C2=O)cc1", "category_label": "false (0)"}
{"compound": "CN(C(=O)COC(=O)Cc1ccccc1[N+](=O)[O-])C1CCS(=O)(=O)C1 (stereo not given)", "category_label": "false (0)"}
{"compound": "O=C(Nc1cc(N2CCOCC2)ncn1)NC1(C(F)(F)F)Oc2ccc(Cl)cc2O1 (stereo not given)", "category_label": "true (1)"}
{"compound": "CN(CC(=O)NCCc1ccc(S(N)(=O)=O)cc1)CC(=O)Nc1ccc(Cl)cc1", "category_label": "false (0)"}

Please state the recorded outcome for this compound: Cc1cccc(OCC(=O)NCC(=O)N/N=C/c2ccc(N(C)C)cc2)c1
false (0)

# outcome recorded in this test, key = COc1ccc(-c2nc3cnccn3c2NC(C)(C)CC(C)(C)C)cc1O
false (0)

Per the records of this test, what outcome belongs to CC(=O)[C@@]12O[C@@H]1C[C@H]1[C@@H]3CC[C@H]4C[C@@H](O)CC[C@]4(C)[C@H]3CC[C@@]12C ?
false (0)

Outcome? Cc1cc(C)cc(NS(=O)(=O)c2ccc(Oc3ncc(C(F)(F)F)cc3Cl)cc2)c1
true (1)

In this assay, the call recorded for Cc1csc(NC(=O)NC2(C(F)(F)F)Oc3ccccc3O2)n1 was what?
false (0)

###

# test_description: cancer stem cell viability inhibitors, primary screen, luminescence (AID 2717)
# condition_description: cancer stem cell-like cells viability, at 7.5 µM, hits give high values
Screen size: about 300,000 compounds; about 3,200 (1.1%) were called active. The full list was thinned out, with actives kept by preference.
measure: inhibition (%)
Numbers only, in %.

Illustrative cases are given below, each with its answer.
{"molecule": "CCOC(=O)[C@@H]1[C@H]2COc3ccc(Br)cc3[C@H]2N2C(=O)N(c3ccc(C)cc3)C(=O)[C@@]12C", "inhibition, %": -5.83}
{"molecule": "CCOC(=O)N1CCN(C(=O)c2ccc(S(=O)(=O)Nc3cccc(C(F)(F)F)c3)cc2)CC1", "inhibition, %": 8.22}
{"molecule": "Cc1ccc(NC(=O)C(C)Sc2nnc(C3CC3)n2C2CC2)cc1S(=O)(=O)N1CCOCC1 (stereo not given)", "inhibition, %": -10.2}
{"molecule": "O=C(/C=C/c1ccc(F)cc1)Nc1cccc(S(=O)(=O)Nc2cccc(C(F)(F)F)c2)c1", "inhibition, %": 2.9}

Continue with the molecule presented below.
Looking for the measured inhibition of COc1ccccc1CNC(=O)c1ccc(Cl)c(S(=O)(=O)N2CCCC2)c1 , can you help?
-0.0556

###

# test_description: cancer stem cell viability inhibitors, primary screen, luminescence (AID 2717)
# condition_description: cancer stem cell-like cells viability, at 7.5 µM, hits give high values
About 3,200 (1.1%) of roughly 300,000 compounds were called active. For the sample, actives were picked, then their nearest neighbours and some compounds at random.
Kindly supply the reported inhibition values for the records listed here.
Answers are plain numbers, in %.

{"compound": "Cc1ccc2c(N)c(C(=O)c3ccccc3)sc2n1", "inhibition [%]": 45.8}
{"compound": "O=C(OCC(=O)N1CCCCCC1)c1ccc(Br)c(S(=O)(=O)N2CCOCC2)c1", "inhibition [%]": -10.2}
{"compound": "N#Cc1ccc(CN2CCN(CC(=O)Nc3ccccc3C(=O)NC3CC3)CC2)cc1", "inhibition [%]": -9.82}
{"compound": "COc1ccccc1NS(=O)(=O)c1ccc(C)c(C(=O)NNC(=O)c2csc(N3CCOCC3)n2)c1", "inhibition [%]": -11.7}
{"compound": "Cc1ccc(-c2csc(-c3cc(C)on3)n2)cc1", "inhibition [%]": -0.292}

# batch: return inhibition for each of the 4 compounds below
1. C[C@H]1CN([C@@H](C)CO)C(=O)Cc2cc(NC(=O)Cc3ccccc3)ccc2O[C@H]1CN(C)S(=O)(=O)c1cccs1
2. Cc1ccc(-n2[nH]c(C)c(/C=N/NC(=O)c3cccc([N+](=O)[O-])c3)c2=O)cc1C
3. O=C(COC(=O)C1CCCO1)Nc1nc(-c2ccc(F)cc2)cs1 (configuration not stated)
4. CC(C)(C)c1ccc(C(=O)NCCn2c(N)c(C#N)c3nc4ccccc4nc32)cc1

[-17, 104, -5.39, 35.6]

Provide inhibition values for the following items, in order.
1. S=C(Nc1cccc(Cl)c1)Nc1ccc2c(c1)OCCO2
2. FC(F)(F)c1cccc(NC(=S)Nc2cccc(Cl)c2)c1

1: 4.65; 2: 52.9

Give measured inhibition for every item shown.
1. O=c1ccc2c(-c3ccccc3S(=O)(=O)O)c3ccc(O)c(O)c3oc-2c1O
2. C/C=C/c1ccc(OCC(=O)NNC(=O)CN(C)S(=O)(=O)c2ccc(C)cc2)c(OC)c1

1: 25.4; 2: -2.93

Quick one: give me inhibition for each item below, same order please.
1. CCCc1cc(-c2nc(-c3ccc(C)cc3)cs2)ccn1
2. COc1ccccc1-c1sc2ccccc2c1-c1ccc(C(C)=O)cc1
3. CCCNC(=O)c1c(N)n(-c2ccc(S(N)(=O)=O)cc2)c2nc3ccccc3nc12
4. Cn1cccc1C(=O)OCC(=O)NCCc1ccccc1
5. O=C(Nc1cccc(S(=O)(=O)N2CCCCC2)c1)c1cncc(Br)c1
6. CCc1nc2sc(C(=O)O)c(N)c2c2c1CCCC2

101
29.6
0.593
6.32
-3.28
5.22

Go through the items and report each one's inhibition.
1. Cc1ccc(-c2csc(-c3c[nH]c4ccccc34)n2)cc1
2. Cc1csc(NC(=S)Nc2cccc(Cl)c2)n1
3. COc1cc(OC)cc(-c2cc3ccc(F)cc3cn2)c1

[0.177, 78.6, 47]

###

# test_description: cancer stem cell viability inhibitors, primary screen, luminescence (AID 2717)
# condition_description: cancer stem cell-like cells viability, at 7.5 µM, hits give high values
About 3,200 (1.1%) of roughly 300,000 compounds were called active. Only a selection was taken, and actives are over-represented in it overall.
measure: inhibition (%)
Numbers only, in %.

Worked examples, 5 compounds total:
{"compound": "COc1ccc2c(c1OC)C(=O)OC2Nc1nc(-c2ccccc2)cs1 (stereo not given)", "u": "%", "recorded_number": 126}
{"compound": "O=C(COC(=O)c1ccc(F)c(S(=O)(=O)N2CCOCC2)c1)NCc1ccc2c(c1)OCO2", "u": "%", "recorded_number": 8.38}
{"compound": "Cc1ccc(C(=O)Nc2ccc3c(c2)OCCO3)cc1S(=O)(=O)N1CCOCC1", "u": "%", "recorded_number": -3.87}
{"compound": "Cc1ccc(-c2csc(NC3OC(=O)c4ccccc43)n2)cc1 (stereo not given)", "u": "%", "recorded_number": -24.8}
{"compound": "COc1ccc(N2CCN(C(CNS(=O)(=O)c3ccc(C)cc3)c3ccccc3)CC2)cc1 (stereo not given)", "u": "%", "recorded_number": 20.2}

Here are 2 compounds. What values of inhibition were reported for them?
1. CN(CCc1ccccc1)C(=O)c1cccc(NC(=O)Cc2ccc([N+](=O)[O-])cc2)c1
2. CCN(C(=O)COC(=O)c1ccccc1O)c1cccc2ccccc12

1: -6.88; 2: -18.3

Could you tell me inhibition for each of these compounds? They are listed below.
1. COc1ccc(-c2sc3ccc(OC)cc3c2C#Cc2ccccn2)cc1
2. CCOC(=O)[C@H]1[C@H]2COc3ccc(Cl)cc3[C@@H]2N2C(=O)c3cc(C)ccc3NC(=O)[C@@]12C

1. 111
2. -10.6

Count: 7. Required value per item: inhibition.
1. COc1ccc2sc(-c3ccc(S(C)(=O)=O)cc3)c(C#Cc3cncn3C)c2c1
2. Oc1ccc(N2CCN(C(=S)NCc3ccccc3)CC2)cc1
3. Cn1nnnc1SCC(=O)Nc1sccc1C(N)=O
4. Cc1ccc(C)c(S(=O)(=O)N2CCN(c3ncnc4sccc34)CC2)c1
5. CC[C@]1(O)C[C@@H]2CN(CCc3c([nH]c4ccccc34)[C@@](C(=O)OC)(c3cc4c(cc3OC)N(C)[C@H]3[C@@](O)(C(=O)OC)[C@H](OC(C)=O)[C@]5(CC)C=CCN6CC[C@]43[C@@H]65)C2)C1
6. CCC1(CC)Cc2ccccc2-c2nc3ccccc3c(=O)n21
7. Cc1ccc(C)c(NC(=O)COC(=O)c2nn(C)c(=O)c3ccccc23)c1

1. 45.5
2. 76.5
3. -11.4
4. 101
5. 80.5
6. 1.88
7. -4.9
